- TARGET_ENTITY: Human immunodeficiency virus type 1 reverse transcriptase (Human immunodeficiency virus 1, UniProt Q72547, L100I)
- TEST_METHOD_NOTES: Inhibition of HIV1 reverse transcriptase L100I mutant using oligo(dT)16 as primer measured after 40 mins by picogreen-dye based spectrofluorimetric analysis
QUANTITY_NAME: pIC50
Friendly reminder that pIC50 comes from taking -log10 of the concentration in mol/L.

COMPOUND: COc1cc2cc(C#N)ccc2c(OC)c1Oc1cc(N)nc(Nc2ccc(C#N)cc2)n1
pIC50: 7.15

So for CCNc1cc(Oc2c(OC)cc3cc(C#N)ccc3c2OC)nc(Nc2ccc(C#N)cc2)n1 , the logged pIC50 turned out to be 5.88

Summary for this compound, COc1cc2cc(C#N)ccc2c(OC)c1Oc1cc(N2CCC(O)C2)nc(Nc2ccc(C#N)cc2)n1 (stereo not drawn) : pIC50 is 6.31
